Numbers sourced from patent US9440957B2.

# Target: EGFR(L858R/T790M) (Homo sapiens, UniProt P00533, L858R/T790M)
# Construct: purchased from Carna (GST-a.a. 669-1210)
# Sequence (P00533 669-1210 T790M/L858R): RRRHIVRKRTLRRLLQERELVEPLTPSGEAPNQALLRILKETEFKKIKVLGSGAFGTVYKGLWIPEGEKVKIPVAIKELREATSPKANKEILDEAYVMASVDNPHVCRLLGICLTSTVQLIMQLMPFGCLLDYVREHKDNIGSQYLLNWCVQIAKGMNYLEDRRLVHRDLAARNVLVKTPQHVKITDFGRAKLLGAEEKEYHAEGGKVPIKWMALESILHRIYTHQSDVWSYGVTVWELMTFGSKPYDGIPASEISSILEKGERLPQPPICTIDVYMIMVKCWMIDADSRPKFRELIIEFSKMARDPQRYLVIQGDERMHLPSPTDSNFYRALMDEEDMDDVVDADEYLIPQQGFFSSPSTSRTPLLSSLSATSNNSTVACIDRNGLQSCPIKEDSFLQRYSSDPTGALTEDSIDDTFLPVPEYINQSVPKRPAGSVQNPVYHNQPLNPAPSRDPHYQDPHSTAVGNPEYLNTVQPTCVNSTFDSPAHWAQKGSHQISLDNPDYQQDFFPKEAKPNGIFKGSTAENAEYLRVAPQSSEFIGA
# Assay explanation: EGFR biochemical assay (HTRF), IC50 determinations
# Recorded conditions: EGFR (L858R/T790M) with no pre-incubation; read-out: IC50 (μM) Column A
Reported metric: IC50 (µM)

Known results for compounds:
C=CC(=O)N1CCOCC(n2c(NC(=O)c3cccc(C(F)(F)F)c3)nc3cccc(C)c32)C1 (single isomer, unassigned) [Example 21-7B] = 0.008
C=CC(=O)N1CCC[C@@H](n2c(NC(=O)c3cccc(C(F)(F)F)c3)nc3cc(C(N)=O)ccc32)C1 = 0.218
C=CC(=O)N1CCCC[C@@H](n2c(NC(=O)c3cc(C)nc(C)c3)nc3ccc(OCCN4CCCC4)c(Cl)c32)C1 = 0.004

1. C=CC(=O)N1CCCC(n2c(NC(=O)c3cccc(C(F)(F)F)c3)nc3c2CN(C(C)=O)CC3)C1 (stereo not shown)
2. Cc1cc(C(=O)Nc2nc3cccc(Cl)c3n2[C@@H]2CCCCN(C(=O)C3=CCCN(C)C3)C2)ccn1
3. Cc1cccc2nc(NC(=O)c3ccccc3)n(C3CCCCN(C(=O)/C=C/CN(C)C)C3)c12 (stereo not shown)
4. Cc1cc(C(=O)Nc2nc3cccc(Cl)c3n2[C@@H]2CCCCN(C(=O)/C=C/CNC3CC3)C2)ccn1
Would you mind ranking these compounds by ascending IC50? // respond by listing labels in the order requested
4, 3, 2, 1
